From: PubChem BioAssay (NCI)

system: LOX IMVI melanoma; assay: NCI-60 one-dose screen, 48 h; conditions: 10 µM unless noted
About 83,000 compounds went through this panel and 20% of them were active in at least one assay; those are over-represented in the sample as a whole. Active and inactive are the calls of the source. The calls were made as follows: active = growth percent below 10; inactive = the rest.
Assign a class; possible classes are active, inactive

Worked examples follow.
# compound, test target, group label
data = [
    ("C#Cc1nc(/C=C\\CCCCCCC(=O)NO)cs1", "LOX IMVI melanoma", "active"),
    ("CCOC(=O)c1ccc(NC2=CC(=O)C(C)=C(C)C2=O)cc1", "LOX IMVI melanoma", "inactive"),
    ("N#Cc1cccc(-c2cc(-c3ccc4c(c3)OCCO4)[nH]n2)c1", "LOX IMVI melanoma", "inactive"),
    ("O=C(N/N=C\\c1ccc([N+](=O)[O-])cc1)c1ccc2nc(-c3ccc(Br)cc3)[nH]c2c1", "LOX IMVI melanoma", "active"),
    ("COc1ccc2[nH]cc(-c3nc(N)nnc3-c3cn(C)c4ccc(Br)cc34)c2c1", "LOX IMVI melanoma", "inactive"),
    ("O=C(CSc1nc2ccccc2c(=O)n1-c1ccc(Cl)c(Cl)c1)Nc1ccc(S(=O)(=O)Nc2ccc(Cl)nn2)cc1", "LOX IMVI melanoma", "inactive"),
    ("O=C1/C(=C/c2cc(F)cc(F)c2)Cc2cc3c(cc21)OCO3", "LOX IMVI melanoma", "inactive"),
    ("CN1CC[C@@H]2[C@@]3(C)CC[C@H](O)C(C)(C)[C@@H]3CC[C@@]2(C)[C@]2(C)CC[C@@]3(CO)CCC(C)(C)C[C@@H]3C12 (some centres undefined)", "LOX IMVI melanoma", "inactive"),
]

Switching to the query record.
Ask: Hey, what did the test say about O=C(CSc1nc2ccccc2c(=O)n1CCc1ccccc1)Nc1ccc(S(=O)(=O)Nc2ccc(Cl)nn2)cc1 ?
Result: inactive
